Assay: folding stability dG unfold from trypsin proteolysis; higher = more stable
Please mark true (1) if the recorded folding stability dG unfold is equal to or greater than 2 kcal/mol, and false (0) if it falls below.

| residueCodes | classLabel |
| --- | --- |
| SAGEVKPGETVTLTIVLSKEELEKLEELAKALPGVEVTEVKVEKLPDGLVRVTITVTKEALEKLKELLESAG [r5_554_TrROS_Hall] | true (1) |
| SAGGSAGGSKKKITVKIEEVKLNPETGKLVLVKIKLPDGKELVFKTPEEIENLPGAEFEVYELSAGGSAGGS [r20_192_TrROS_Hall] | false (0) |
| SAGGSAGGSAGGGSSGVSYGSVPIVIRDPSGNVVSTLTLRVYPDGTVVLEFPDGSLLLLSAGGSAGGSAGGS [r10_972_JUSTAS] | true (1) |
| SAGGSAGGTAEQIREIVEQLFRKRGMEPKKIEIKRVERNGDKVTIEVEWRWDNGRKRPRNIQIPSAGGSAGG [r6_841_TrROS] | false (0) |
| SAAVPSDLTLTTLETKKEKFDDNEYTVVKSVLLRPGAPGATVTEYTTVYKGDKVVETKPSERTVSPALLSAG [r14_651_JUSTAS] | false (0) |
| SAGGSAGGSAGGSKPKVKITIEKNKETNEYTITIEKDGKKYTFVVKNLKPDDPAIKKALSAGGSAGGSAGGS [r4_328_TrROS_Hall] | false (0) |
